- Target Of Assay: Dual specificity protein kinase CLK1 (Mus musculus)
- Sequence (P22518 whole entry): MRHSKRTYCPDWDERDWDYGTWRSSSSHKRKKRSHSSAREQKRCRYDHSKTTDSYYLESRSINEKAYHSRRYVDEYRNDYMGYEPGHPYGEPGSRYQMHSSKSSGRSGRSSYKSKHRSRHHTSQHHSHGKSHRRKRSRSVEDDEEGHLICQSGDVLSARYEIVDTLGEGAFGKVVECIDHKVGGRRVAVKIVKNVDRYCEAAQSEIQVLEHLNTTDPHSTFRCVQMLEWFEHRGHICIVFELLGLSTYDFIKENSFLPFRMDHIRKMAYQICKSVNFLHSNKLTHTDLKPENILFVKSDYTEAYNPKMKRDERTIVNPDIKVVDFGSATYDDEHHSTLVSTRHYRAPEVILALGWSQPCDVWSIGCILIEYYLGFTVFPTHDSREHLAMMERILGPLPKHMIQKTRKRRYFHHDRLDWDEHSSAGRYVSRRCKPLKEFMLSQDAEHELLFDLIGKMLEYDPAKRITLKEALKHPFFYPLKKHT
- Procedure Text: Inhibition of mouse recombinant GST-tagged CLK1 using GRSRSRSRSRSR as substrate
Quantity Measured: pIC50
Here pIC50 is given on a logarithmic scale as minus log10 of the concentration in mol/L.

// worked examples, pIC50 included
| Compound | Quantity Measured | Experimental Value |
| --- | --- | --- |
| CN1C(=O)/C(=C/c2ccc3c(c2)OCO3)N=C1Nc1ccc2c(c1)OCCO2 | pIC50 | 6.66 |
| CCOC(=O)C(=O)NC1=N/C(=C\c2ccc3c(c2)OCO3)C(=O)N1C | pIC50 | 5.51 |
| Cc1ccc(NC2=N/C(=C\c3ccc4c(c3)OCO4)C(=O)N2)cc1 | pIC50 | 6.49 |

Consider the record given below.
Would you kindly share the measured pIC50 for `CCCNC1=N/C(=C\c2ccc3c(c2)OCO3)C(=O)N1` ?
6.89
